- test-target: human GABA A α5β3γ2 receptor (Homo sapiens, UniProt P18507+P31644)
- test-details: [3H]flumazenil competition binding to HEK293 cells expressing human GABA A receptors
- run-parameters: competition for [3H]flumazenil (0.5 nM for α5); HEK293 cells expressing human (transiently transfected) receptors; means of two determinations; read-out: hKi GABA Aα5
In this section we review reported Ki values for a set of compounds.
Dear colleague, please return just the value in nM, with no unit written.

compound: CCCCc1noc(C)c1COc1ccc(C(=O)NC2(C)CC2)cn1 [Example 21]
test-target: human GABA A α5β3γ2 receptor (Homo sapiens, UniProt P18507+P31644)
Ki [nM]: 11.5

compound: CCCCc1noc(C)c1COc1ccc(C(=O)NCC(C)O)cn1 (stereo not drawn) [Example 17]
test-target: human GABA A α5β3γ2 receptor (Homo sapiens, UniProt P18507+P31644)
Ki [nM]: 5.2

Now for the compound whose Ki we want.
Looking up CCCCc1nocc1COc1ccc(C(=O)N[C@@H](C)CO)cn1 [Example 28] , I found its Ki recorded as 36.1
